Each recorded value in this set is attributed to paper PMC6731595.

- measured-target: human Mcm10 internal domain (hMcm10-ID) (Homo sapiens)
- Construct: hMcm10-ID (residues 237 to 436) were expressed in E. coli strain BL21(DE3); 6xHis (HRV 3C site) (N, cleaved yes)
- Sequence (Q7L590 237-436): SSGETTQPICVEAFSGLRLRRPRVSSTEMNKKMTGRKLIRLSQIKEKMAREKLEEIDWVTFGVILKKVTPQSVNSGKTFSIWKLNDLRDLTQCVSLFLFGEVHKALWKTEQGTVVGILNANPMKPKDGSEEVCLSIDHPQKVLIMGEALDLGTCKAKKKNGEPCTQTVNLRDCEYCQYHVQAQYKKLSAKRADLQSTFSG
- procedure-text: Fluorescence polarization competition assay, displacement of 5′-6FAM 10-mer ssDNA probe from hMcm10-ID
- assay-setup: mean ± s.e.m., n ≥ 3; hMcm10-ID 1 μM, probe 12.5 nM
Each record here notes measured Ki.
readout: Ki (µM)

[
  {
    "cpd-smiles": "O=C(Nc1cccc(C(=O)Nc2cc(C(=O)Nc3ccc(S(=O)(=O)O)c4cc(S(=O)(=O)O)cc(S(=O)(=O)O)c34)ccc2F)c1)Nc1cccc(C(=O)Nc2cc(C(=O)Nc3ccc(S(=O)(=O)O)c4cc(S(=O)(=O)O)cc(S(=O)(=O)O)c34)ccc2F)c1",
    "u": "µM",
    "result-number": 0.17
  },
  {
    "cpd-smiles": "Cc1nc(/N=N/c2ccc(S(=O)(=O)O)cc2S(=O)(=O)O)c(COP(=O)(O)O)c(C=O)c1O",
    "u": "µM",
    "result-number": 17
  },
  {
    "cpd-smiles": "Cc1nc(/N=N/c2cc(S(=O)(=O)O)ccc2S(=O)(=O)O)c(COP(=O)(O)O)c(C=O)c1O",
    "u": "µM",
    "result-number": 18
  }
]

----------
- measured-target: human RPA70AB (A and B DNA binding domains of RPA70) (Homo sapiens, UniProt P27694)
- Construct: recombinant human RPA70AB (181-422) in a pSV281 vector; 6xHis (TEV site) (N, cleaved yes); made in house; host or cells: Escherichia coli BL21(DE3)
- Sequence (P27694 181-422): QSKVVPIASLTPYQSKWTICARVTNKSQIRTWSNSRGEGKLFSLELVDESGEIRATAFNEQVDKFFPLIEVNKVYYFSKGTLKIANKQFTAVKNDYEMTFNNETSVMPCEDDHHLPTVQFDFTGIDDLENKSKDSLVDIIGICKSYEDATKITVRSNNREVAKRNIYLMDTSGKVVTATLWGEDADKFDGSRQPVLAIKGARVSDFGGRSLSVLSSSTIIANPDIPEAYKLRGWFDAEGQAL
- procedure-text: Fluorescence polarization competition assay, displacement of 5′-6FAM ssDNA probe from RPA70AB
- assay-setup: predominant low-affinity (or only) component; mean ± s.e.m., n ≥ 3; read-out: fluorescence polarization hRPA70AB Ki2
Structures can show the parent of a compound that is named as a salt.

[
  {
    "compound": "O=C(Nc1cc(C(=O)Nc2ccc(S(=O)(=O)O)cc2S(=O)(=O)O)cc(C(=O)Nc2ccc(S(=O)(=O)O)cc2S(=O)(=O)O)c1)Nc1cc(C(=O)Nc2ccc(S(=O)(=O)O)cc2S(=O)(=O)O)cc(C(=O)Nc2ccc(S(=O)(=O)O)cc2S(=O)(=O)O)c1 [NF449]",
    "u": "µM",
    "sign-qualifier": "=",
    "Ki": 14
  },
  {
    "compound": "Cc1ccc(C(=O)Nc2ccc(S(=O)(=O)O)c3cc(S(=O)(=O)O)cc(S(=O)(=O)O)c23)cc1NC(=O)c1cccc(NC(=O)Nc2cccc(C(=O)Nc3cc(C(=O)Nc4ccc(S(=O)(=O)O)c5cc(S(=O)(=O)O)cc(S(=O)(=O)O)c45)ccc3C)c2)c1 [suramin, suramin sodium salt]",
    "u": "µM",
    "sign-qualifier": "=",
    "Ki": 2.5
  },
  {
    "compound": "Cc1nc(/N=N/c2cc(S(=O)(=O)O)ccc2S(=O)(=O)O)c(COP(=O)(O)O)c(C=O)c1O [iso-PPADS]",
    "u": "µM",
    "sign-qualifier": ">",
    "Ki": 1000
  }
]

----------
- System: HCT116 cells
- procedure-text: CellTiter-Glo cell viability assay, HCT116
- Format: cell-based, human
- Protocol: Cells were cultured at 37°C and 5% CO2. […] Cells were allowed to grow for 4 days in inhibitor containing medium and cell viability was measured with the CellTiter-Glo Luminescent Cell Viability Assay (Promega G7572) following the manufacturer's instructions. Viability of each drug treatment condition was normalized to the untreated control for each cell line and fitted to the sigmoidal dose–response variable slope four parameter equation in GraphPad Prism 6.0.
Counter-ions that a name gives are not always drawn.
readout: higher cytotoxicity for HCT116 cancer cells in comparison to hTERT RPE-1 cells

[
  {
    "compound": "O=C(Nc1cccc(C(=O)Nc2cc(C(=O)Nc3ccc(S(=O)(=O)O)c4cc(S(=O)(=O)O)cc(S(=O)(=O)O)c34)ccc2F)c1)Nc1cccc(C(=O)Nc2cc(C(=O)Nc3ccc(S(=O)(=O)O)c4cc(S(=O)(=O)O)cc(S(=O)(=O)O)c34)ccc2F)c1",
    "result": "approximately 3.5 fold"
  },
  {
    "compound": "Cc1ccc(C(=O)Nc2ccc(S(=O)(=O)O)c3cc(S(=O)(=O)O)cc(S(=O)(=O)O)c23)cc1NC(=O)c1cccc(NC(=O)Nc2cccc(C(=O)Nc3cc(C(=O)Nc4ccc(S(=O)(=O)O)c5cc(S(=O)(=O)O)cc(S(=O)(=O)O)c45)ccc3C)c2)c1 [suramin, suramin sodium salt]",
    "result": "approximately 3.5 fold"
  }
]
